system under test: Recombinant human TLR7 (Homo sapiens, UniProt Q9NYK1)
Construct: TLR7 in vector pUNO, blasticidin selection
Sequence (Q9NYK1 27-1049): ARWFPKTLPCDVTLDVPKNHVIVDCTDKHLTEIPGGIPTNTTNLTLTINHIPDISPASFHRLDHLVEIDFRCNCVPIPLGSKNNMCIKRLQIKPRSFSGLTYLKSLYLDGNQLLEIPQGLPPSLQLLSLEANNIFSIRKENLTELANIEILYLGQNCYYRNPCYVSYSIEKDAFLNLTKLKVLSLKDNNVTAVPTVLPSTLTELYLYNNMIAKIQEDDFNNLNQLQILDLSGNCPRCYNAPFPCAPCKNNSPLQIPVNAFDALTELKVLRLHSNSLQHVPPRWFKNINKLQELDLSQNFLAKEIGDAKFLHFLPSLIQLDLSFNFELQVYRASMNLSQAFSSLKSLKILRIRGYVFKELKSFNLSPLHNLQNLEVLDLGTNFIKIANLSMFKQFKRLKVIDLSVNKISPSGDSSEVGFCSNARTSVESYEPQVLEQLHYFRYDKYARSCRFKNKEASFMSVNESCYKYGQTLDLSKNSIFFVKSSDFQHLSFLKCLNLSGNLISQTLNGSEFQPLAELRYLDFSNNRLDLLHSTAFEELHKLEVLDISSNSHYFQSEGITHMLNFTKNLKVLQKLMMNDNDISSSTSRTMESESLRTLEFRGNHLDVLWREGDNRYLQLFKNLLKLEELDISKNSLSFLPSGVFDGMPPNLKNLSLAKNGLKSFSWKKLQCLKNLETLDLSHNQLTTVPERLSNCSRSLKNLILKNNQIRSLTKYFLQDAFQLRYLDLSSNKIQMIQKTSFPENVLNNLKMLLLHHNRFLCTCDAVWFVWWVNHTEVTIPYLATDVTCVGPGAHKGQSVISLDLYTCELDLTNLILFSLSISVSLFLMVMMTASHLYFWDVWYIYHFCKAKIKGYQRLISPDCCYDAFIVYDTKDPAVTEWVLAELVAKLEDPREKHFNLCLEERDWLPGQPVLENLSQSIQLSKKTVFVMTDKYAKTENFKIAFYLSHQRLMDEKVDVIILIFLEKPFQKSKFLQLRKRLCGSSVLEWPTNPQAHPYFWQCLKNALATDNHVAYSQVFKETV
method notes: Human TLR7 assay (SEAP reporter in HEK293 cells)
test parameters: HEK293 cell line stably expressing human TLR7 and pNiFty2-SEAP reporter; SEAP induction after overnight incubation at 37° C., 0.1% (v/v) DMSO
pEC50: −log10 of the molar value.
metric name: pEC50

CCCCOc1nc(N)c2[nH]c(=O)n(CCCN(Cc3ccccc3)C(=O)CCC(=O)OC)c2n1 :: 7.40
CCCCOc1nc(N)c2[nH]c(=O)n(CCCN(Cc3ccccc3)C(=O)Cc3ccc(S(C)(=O)=O)cc3)c2n1 :: 7.10
CCCCOc1nc(N)c2[nH]c(=O)n(CCCN(Cc3ccccc3)C(=O)COC)c2n1 :: 7.30
CCCCOc1nc(N)c2[nH]c(=O)n(CCCN(Cc3ccccc3)C(=O)CCOC)c2n1 :: 7.10

I = CCCCOc1nc(N)c2[nH]c(=O)n(CCCN(Cc3ccccc3)C(=O)CCN(C)C)c2n1
II = CCCCOc1nc(N)c2[nH]c(=O)n(CCCN(Cc3ccccc3)C(C)=O)c2n1
Input: Min pEC50? I | II Write the label of whichever entry you select.
Output: II
(II: 7.20, I: 7.50)

1 = CCCCOc1nc(N)c2[nH]c(=O)n(CCCN(Cc3ccccc3)C(=O)CCC(=O)N(C)C)c2n1
2 = CCCCOc1nc(N)c2[nH]c(=O)n(CCCN(Cc3ccccc3)C(=O)CN3CCN(Cc4ccccc4)CC3)c2n1
Input: // which entry has the larger pEC50 value, 1 or 2 ? Write the label of whichever entry you select.
Output: 2
(2: 8.10, 1: 7.10)

P = CCCCOc1nc(N)c2[nH]c(=O)n(CCCN(Cc3ccccc3)C(=O)CCc3cnccn3)c2n1
Q = CCCCOc1nc(N)c2[nH]c(=O)n(CCCN(Cc3ccccc3)C(=O)Cn3nc(C)nc3C)c2n1
Input: Min pEC50? P | Q Write the label of whichever entry you select.
Output: Q
(Q: 6.80, P: 7.30)
